Below is a list of entries, each paired with its recorded self-cleavage value.
B1: HDV Ribozyme (parent)
chain: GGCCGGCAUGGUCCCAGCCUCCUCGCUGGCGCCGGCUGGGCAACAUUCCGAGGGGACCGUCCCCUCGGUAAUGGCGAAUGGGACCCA

- Variants of: B1
- TEST_DETAILS: self-cleavage, relative activity (ratio to wild type); higher = more cleavage; co-transcriptional
Reply with the value as a number alone.

The examples below pair each entry with its known result.
| CHAIN | self-cleavage |
| --- | --- |
| GGCCGGCAUGGUCCCAGCCUCCUCGCUGGCGCCGGCUGGUCAACAUUCCGAGUGGACCGUCCCCUCGGUAAUGGCGAAUGGGACCCA | 0.75 |
| GGCCGGCAUGGUCCCAGCCUCCUCGCUGGCGCCGGCUGGGCAACAUACCGAGGUGACCGUCCCCUCGGUAAUGGCGAAUGGGACCCA | 0.91 |
| GGCCGGCAUUGUCCCAGCCUCCUCGCUGGCGCCGGCUGGGCAACAUUCCAAGGGGACCGUCCCCUCGGUAAUGGCGAAUGGGACCCA | 0.62 |
| GGCCGGCAUGGUCCCAGCCUCCUCGCUGGCGCCGGCUGCGCAACAUUCCGAGGUGACCGUCCCCUCGGUAAUGGCGAAUGGGACCCA | 0.222 |
| GGCCGGCAUGGUCCCAGCCUCCUCGCUGGCGCCGGCUGGGCAACAUUCUGAGGGGACCGUCCCCUCGGUAUUGGCGAAUGGGACCCA | 0.875 |

Record GGCCGGCAUGUUCCCAGCCUCCUCGCUGGCGCCGGCUGGGCAACAUUCCGAGGGGACCGUCCCCUCGAUAAUGGCGAAUGGGACCCA . Reported self-cleavage: 0.205

Record GGCCGGCAUGGGCCCAGCCCCCUCGCUGGCGCCGGCUGGGCAACAUUCCGAGGGGACCGUCCCCUCGGUAAUGGCGAAUGGGACCCA . Reported self-cleavage: 0

Record GGCCGGCAUGGUCCCAGCCUCCUCGCUGGCGCCGGCUGGGCAACAUUCCGAGGGGCCCGUCCCCUCGGUAAUGGAGAAUGGGACCCA . Reported self-cleavage: 0.116
